Sourced from patent US20260234165A1

Recorded measurements of IC50, one per entry
- Tested on: p-ERK in AsPC-1 cells (KRAS G12D mutation)
- TEST_DETAILS: Cell p-ERK assay (HTRF) in AsPC-1 cells
- Type: cell-based, human
- TEST_PARAMETERS: Homo sapiens, ASPC1, 3 h, AsPC-1 cells, 3 h compound incubation, HTRF p-ERK T202/Y204; read-out: AsPC-1 p-ERK IC50
Report as a plain number; the unit nM is understood.

// known answers, use as guide
CCn1c(-c2cc(C#CCN3CCCOCC3)cnc2[C@H](C)OC)c2c3cc(ccc31)-c1csc(n1)C[C@H](NC(=O)CC1CC1(F)F)C(=O)N1CCC[C@H](N1)C(=O)OCC(C)(C)C2 (atropisomer, axis not shown; (Ra)) [Compound Z932] :: 2.14
CCn1c(-c2cc(N3CCN(C)CC3)cnc2[C@H](C)OC)c2c3cc(ccc31)-c1csc(n1)C[C@H](Nc1cccnn1)C(=O)N1CCC[C@H](N1)C(=O)OCC(C)(C)C2 (atropisomer, axis not shown; (Ra)) [Compound Z457] :: 92
CCn1c(-c2cc(OCCN3CCN(C)S(=O)(=O)CC3)cnc2[C@H](C)OC)c2c3cc(ccc31)-c1csc(n1)C[C@H](NC(=O)[C@H]1[C@H](C)[C@@H]1C)C(=O)N1CCC[C@H](N1)C(=O)OCC(C)(C)C2 (atropisomer, axis not shown; (Ra)) [Compound Z796] :: 0.42
CCn1c(-c2cc(N3CCC(N4CCS(=O)(=O)CC4)CC3)cnc2[C@H](C)OC)c2c3cc(ccc31)-c1csc(n1)C[C@H](NC(=O)[C@H]1[C@H](C)[C@@H]1C)C(=O)N1CCC[C@H](N1)C(=O)OCC(C)(C)C2 (atropisomer, axis not shown; (Ra)) [Compound Z855] :: 0.29
CCn1c(-c2cc(C#CCN3CCS(=O)(=O)CC3)cnc2[C@H](C)OC)c2c3cc(ccc31)-c1csc(n1)C[C@H](Nc1nnc3cc(C)ccn13)C(=O)N1CCC[C@H](N1)C(=O)OCC(C)(C)C2 (atropisomer, axis not shown; (Ra)) [Compound Z911] :: 2.23
CCn1c(-c2cc(OCC34CCCN3CCC4)cnc2[C@H](C)OC)c2c3cc(ccc31)-c1csc(n1)C[C@H](NC(=O)[C@H]1[C@H](C)[C@@H]1C)C(=O)N1CCC[C@H](N1)C(=O)OCC1(CC1)C2 (single isomer, unassigned) [Compound Z339] :: 10.8
[2H]C([2H])([2H])C1(C([2H])([2H])[2H])COC(=O)[C@@H]2CCCN(N2)C(=O)[C@@H](NC(=O)[C@H]2[C@H](C)[C@@H]2C)Cc2nc(cs2)-c2ccc3c(c2)c(c(-c2cc(OCCN4CCOC5(CC5)C4)cnc2[C@H](C)OC)n3CC)C1 (atropisomer, axis not shown; (Ra)) [Compound Z501] :: 0.35

Query: What does the data say about its IC50? Entry: CCn1c(-c2cc(C#C[C@]3(C)CCCN3C)cnc2[C@H](C)OC)c2c3cc(ccc31)-c1csc(n1)C[C@H](NC(=O)[C@H]1[C@H](C)[C@@H]1C)C(=O)N1CCC[C@H](N1)C(=O)OCC(C)(C)C2 (atropisomer, axis not shown; (Ra)) [Compound Z642]
Result: 0.4
